tested on: DU-145 prostate; assay: NCI-60 one-dose screen, 48 h (100 = growth as untreated, 0 = no growth, -100 = all killed); details: 10 µM unless noted
This is part of a sample that, as a whole, favours compounds with a hit. Of some 83,000 tested, about 20% had one in any assay.
Please go through the items and note down their growth.
Could you give me the number in %? Just the number is fine.

Name the reported growth value associated with the compound CN(Cc1ccc(C(F)(F)F)cc1)CC(O)C(=O)Nc1ccc(Cl)cc1 (stereo not drawn)
-51.4

Now consider CCOC(=O)c1nc(Nc2ccc(NC(=O)Nc3ccc(F)cc3)cc2)c2ccccc2n1 .
108

Now consider CCCCCOc1ccc(C(=O)/C(Br)=C/C(=O)O)cc1 .
106

Now consider CC(C)(C)c1cc(-c2nc3ccc(N4CCN(S(C)(=O)=O)CC4)cc3[nH]2)cc(C(C)(C)C)c1O .
99.1

Now consider c1ccc(CNc2c3ccccc3nc3ccccc23)cc1 .
48.6

Now consider COc1ccc(CC(C#N)c2cc3ccccc3[nH]2)cc1 (stereo not drawn) .
101

Now consider COc1cc(-c2cc(-c3cccs3)c(C#N)c(N3CCOCC3)n2)cc(OC)c1OC .
98.7

Now consider N=C(N)c1ccc(-c2ccc(-c3ccc(F)cc3)o2)o1 .
28.7
